Origin of the recorded values: PubChem BioAssay (NCI)

System: A498 renal
Test: NCI tumour cell line growth inhibition, 48 h
measured.endpoint: GI50

compound	GI50
COc1ccc2c(c1)C(C)Cc1c(Cl)nc(C)nc1N2C (centres undefined)	6790 nM

Report GI50 for O=C(N/N=C/c1cc([N+](=O)[O-])ccc1O)c1cccc2ccccc12 2710 nM

Hello, please tell me recorded GI50 for this one: CC1(C)CC[C@]2(C(=O)N3CCOCC3)CC[C@]3(C)C(=CC[C@@H]4[C@@]5(C)C/C(=C/c6ccncc6)C(=O)C(C)(C)[C@@H]5CC[C@]43C)[C@@H]2C1 1830 nM

Query GI50 for CN(C)c1ccc(C(=C2C=CC(=[N+](C)C)C=C2)c2ccc(N(C)C)cc2)cc1 145 nM

Tell me GI50 reported for CC(C)N1C(NNC(=O)c2cnccn2)=NS(=O)(=O)c2ccccc21 > 100000 nM

Output measured GI50 for this item: CCNCCNc1cc(C2CCCCC2)c(C#N)c2nc3ccccc3n12 1560 nM

Output GI50 of COCCNc1cc(NC(=O)N2CCCc3cc(CN4CCN(C)CC4=O)c(C=O)nc32)ncc1C#N > 50000 nM

Check the records and state GI50 for O=C(CCCSc1nc(-c2ccccc2)cc(-c2ccc(Cl)cc2)n1)NO 1700 nM

Supply measured GI50 of CCOc1ccccc1/C=N\N=C(\N)N/N=C/c1ccccc1OCC in your reply. 2420 nM

---

System: COLO 205 colon
Assay: NCI tumour cell line growth inhibition, 48 h; in the data active means GI50 below about 0.43 µM; inactive means the rest
Return exactly one item of class 1 (active), class 0 (inactive)

compound	classification
CSc1ccccc1C#Cc1ccccc1C#CCCCCO	class 0
CC(C)c1ccc(Nc2nccc(-c3cnn4ncccc34)n2)cc1	class 1
CCCCN(CCCC)c1ccc(C(=NC(C)CCCN(CC)CC)c2ccc(N(C)C)cc2)cc1 (centres undefined)	class 0
O=C(CCCSc1nc(-c2ccccc2)cc(-c2ccc(Cl)cc2)n1)NO	class 0
CCOC(=O)c1nc(Nc2ccc(Cl)cc2)c2ccccc2n1	class 0

Please find the next compound below.
// param item: COC(=O)C1=C(OC(=O)c2ccc(Cl)cc2)C(C(=O)OC)[C@@]2(O)[C@@H](C(=O)OC)C(c3ccccc3Cl)C[C@@H]1[C@@H]2C(=O)OC (some centres undefined) ; yields the recorded call class 0

---

Tested on: RPMI-8226 leukemia
Experiment: NCI tumour cell line growth inhibition, 48 h
measured.endpoint: TGI

Observe how each entry below is paired with its result.
compound	TGI
CCOc1ncn(-c2ccc(NC(=S)NC34CC5CC(CC(C5)C3)C4)cc2)n1	> 100 µM
CSc1ccccc1C#Cc1ccccc1C#CCCCCO	46.6 µM
CC1OC1C(=O)C1(O)C(C)C(O)C23OC2(C(O)c2c(O)cccc2C3=O)C1O (centres undefined)	0.73 µM
CC1(C)OC(=O)C2(O1)C(=O)C1CCCCC12 (centres undefined)	> 100 µM
O=C1OCC/C1=C/c1ccc(N=Nc2c(O)ccc3ccccc23)cc1	53.8 µM
NC(CCCCNC(=O)CNC(=O)OCc1ccccc1)C(=O)NC(CCCCNC(=O)CNC(=O)OCc1ccccc1)C(=O)NC(CCCCNC(=O)CNC(=O)OCc1ccccc1)C(=O)NC(CCCCNC(=O)CNC(=O)OCc1ccccc1)C(=O)NC(CCCCNC(=O)CNC(=O)OCc1ccccc1)C(=O)NC(CCCCNC(=O)CNC(=O)OCc1ccccc1)C(=O)O (centres undefined)	> 75 µM
Cc1c(Cl)cccc1NC1=C(Cl)C(=O)N(Cc2ccccc2)C1=O	26.7 µM
CCOc1ccccc1/C=N\N=C(\N)N/N=C/c1ccccc1OCC	> 100 µM

Let's switch to this compound now.
Supply TGI value. Item: O=C(/C=C/c1ccc(Cl)cc1)c1cccs1 8.29 µM

---

Reported GI50 by item:
Tested on: HCC-2998 colon
Assay: NCI tumour cell line growth inhibition, 48 h

compound	measurement
COc1cc(C2C3=C(COC3=O)Nc3cc4c(cc32)CCC4)cc2c1OCO2 (stereo not given)	260 nM

Return value of GI50 for input Cn1ccnc1C(=O)/C=C/c1ccc(CC(=O)Nc2ccc(C(F)(F)F)cc2)cc1 , no commentary. 2870 nM

Specify reported GI50 for the compound shown: Nc1n[nH]c2cccc(C#Cc3cccc(C(=O)Nc4cc(CN5CCOCC5)cc(C(F)(F)F)c4)c3)c12 3300 nM

---

Test system: NCI-H23 lung
Test: NCI tumour cell line growth inhibition, 48 h
measured.endpoint: TGI

molecule	measurement
COc1cccc(C2SCC(=O)N2c2ccc(-n3c(-c4ccccc4)nc4ccccc4c3=O)cc2)c1OC (stereo unspecified)	> 100 µM

Report value only: TGI, NCI-H23 lung, CCN(CC)C(=S)N=Nc1c(O)[nH]c2ccccc12 14.6 µM

Report value: TGI, system: NCI-H23 lung, molecule: C=CC1C(OC2OC(CO)C(O)C(O)C2O)OC=C(C(=O)OC)C1CC=O (stereo unspecified) > 100 µM

Tell me its TGI on NCI-H23 lung: CCCOC(=O)CCn1c(SC)nc2[nH]cc(-c3ccccc3)c2c1=O 43 µM

Give the observed TGI of O=C(CNC(=O)OCc1ccccc1)NCCCCC(NC(=O)OCc1ccccc1)C(=O)NC(CCCCNC(=O)CNC(=O)OCc1ccccc1)C(=O)OCc1ccccc1 (stereo unspecified) for NCI-H23 lung. > 62.5 µM

Name the value of TGI reported for Cc1c(Cl)cccc1NC1=C(Cl)C(=O)N(Cc2ccccc2)C1=O when tested on NCI-H23 lung. 22.7 µM

Using NCI-H23 lung as the test system, report measured TGI of CCOc1cc2c(cc1OC(C)=O)C(=O)CC[C@H]1C3CC[C@H](OC(C)=O)[C@@]3(C)CC[C@H]21 (stereo partly specified) . > 100 µM

State, for NCI-H23 lung, measured TGI of the molecule listed here: CC(=O)O[C@H]1CCn2c3c(c(C)c21)C(=O)C(N1CC1)=C(C)C3=O > 10 µM

---

System: OVCAR-5 ovarian
Assay: NCI tumour cell line growth inhibition, 48 h
measured.endpoint: TGI

Below, 2 molecules whose answers are already recorded.
CC(C)(C#N)c1cc(C(=O)Nc2cc(Nc3ncccc3-c3ncnc4nc[nH]c34)ccc2F)cc(C(F)(F)F)c1 > 2.86 µM
Cc1ccc(S(=O)(=O)Nn2c(S)c(C#N)c(-c3ccc([N+](=O)[O-])cc3)c(C#N)c2=O)cc1 > 100 µM

Quote OVCAR-5 ovarian TGI for entry O=C1CCCCC/C1=C\c1ccc(Cl)cc1 . > 100 µM

---

Tested on: U251 CNS
Experiment: NCI tumour cell line growth inhibition, 48 h
measured.endpoint: TGI (µM)
Please respond with the number in µM and leave the unit unwritten.

chemical.string	TGI, µM
Nc1n[nH]c2cccc(C#Cc3cccc(C(=O)Nc4cc(CN5CCOCC5)cc(C(F)(F)F)c4)c3)c12	19.2
Cc1ccc2c(C)c3ccc4ccccc4c3c[n+]2c1	23
O=C(OCCBr)c1ccc(Cl)c([N+](=O)[O-])c1	3.2

Write TGI of COC(=O)C1=C(C)NC(C)=C(C(=O)OC)C1c1cccc(NO)c1 ; system used: U251 CNS 29.8

Provide measured TGI on U251 CNS for CCOC(=O)/C=C(\C(=O)OCC)n1ccc(=O)n(CC(=O)OCC)c1=O please. 19.5

Quote U251 CNS TGI for entry O=C1Nc2ccccc2/C1=C/c1c(Cl)[nH]c2ccc(O)cc12 . 14.5

---

Tested on: 786-0 renal
Test: NCI tumour cell line growth inhibition, 48 h; in the data active = GI50 below about 0.43 µM; inactive = the rest
Answer with one of the outcomes active, inactive

compound	classification
O=C(c1cccnc1)c1cc(-c2ccccn2)c(=O)n2ccccc12	inactive

What call does the record list for Cn1ccnc1C(=O)/C=C/c1ccc(CC(=O)Nc2ccc(C(F)(F)F)cc2)cc1 ? inactive

Assay result, entry CCCCNC(=O)NS(=O)(=O)c1ccc(N2N=C(c3cc(C)ccc3C)CC2c2cc(OC)c(OC)c(OC)c2)cc1 (stereo not drawn) — outcome? inactive

Answer briefly: the call reported for CCCCN(CCCC)c1ccc(C(=NC(C)CCCN(CC)CC)c2ccc(N(C)C)cc2)cc1 (stereo not drawn) in this assay. inactive

Look up the recorded call for CCCc1cc(=O)n2c(C(=O)Nc3ccccc3OC)c(C(=O)Nc3ccc(F)cc3)sc2n1 in this test. inactive

Please indicate how the test categorized O=C(OCCBr)c1ccc(Cl)c([N+](=O)[O-])c1 . inactive

For COCCNc1cc(NC(=O)N2CCCc3cc(CN4CCN(C)CC4=O)c(C=O)nc32)ncc1C#N , what call appears in the results of this test? inactive

---

Tested on: NCI-H226 lung
Experiment: NCI tumour cell line growth inhibition, 48 h; in the data active means GI50 below about 0.43 µM; inactive means the rest
Outcomes you can answer with include only these: class 1 = active, class 0 = inactive

Record excerpt, results attached:
compound	classification
Nc1n[nH]c2cccc(C#Cc3cccc(C(=O)Nc4cc(CN5CCOCC5)cc(C(F)(F)F)c4)c3)c12	class 0
O=C(CN1CCN(c2ccccc2)CC1)N1CCN(c2nnc(-c3ccc(Cl)cc3)c(-c3ccc(Cl)cc3)n2)CC1	class 0
O=C(OCCBr)c1ccc(Cl)c([N+](=O)[O-])c1	class 0
O=C(c1cccnc1)c1cc(-c2ccccn2)c(=O)n2ccccc12	class 0
CN(C)CC1CCCCCC(CN(C)C)C1=O (stereo unspecified)	class 0
CCN(CC)c1ccc(C(=N)c2ccc(N(C)C)cc2)cc1	class 0
CSc1ccccc1C#Cc1ccccc1C#CCCCCO	class 0
Nc1ccc(-c2ccc(N)cc2I)c(I)c1	class 0

// outcome(item) with item = COc1cc(C2C3=C(COC3=O)Nc3cc4c(cc32)CCC4)cc2c1OCO2 (stereo unspecified) class 1

Per the records of this test, what outcome belongs to Cn1cc(-c2ccc(-c3cn(C)c4ccc(Cl)cc34)s2)c2cc(Cl)ccc21 ? class 0

Assay result, entry COc1cc(C2CC(c3ccc(N(C)C)cc3)=NN2C(C)=O)cc(OC)c1OC (stereo unspecified) — outcome? class 0
